- System: KM12 colon
- test_protocol: NCI tumour cell line growth inhibition, 48 h
measure_name: TGI

O=C(NO)c1ccc(O)c(O)c1    > 100 µM

Hi! Can you tell me TGI for each of these compounds?
1. CC(=O)O[C@@H](C1C[C@@H](C)[C@H]2[C@@](O)(O1)[C@H](O)[C@@]1(C)C3=CC[C@H]4C(C)(C)[C@@H](OC5OCC(O)C(O)C5O)CC[C@@]45C[C@@]35CC[C@]21C)C(C)(C)O (some centres undefined)
2. Cc1ccc(S(=O)(=O)NCCCSCCSCCCN)cc1
3. CC1=NN(C(=O)CC(=O)Nc2cccc(Cl)c2)C(=O)C1N=Nc1ccc(C(=O)O)cc1 (centres undefined)
4. CC1=C(C(=O)OC(C)C)C(c2ccccc2C(F)(F)F)C(C(=O)OC(CO[N+](=O)[O-])CO[N+](=O)[O-])=C(C)N1 (centres undefined)
5. CN(C)Cc1cc(N=Nc2ccc(Cl)cc2)ccc1OC(=O)c1ccccc1
6. O=C(/C=C(\O)c1ccccc1)c1cc(-c2ccccc2)n(-c2ccccc2)n1

OUT:
1. 58.1 µM
2. > 100 µM
3. > 100 µM
4. 18.5 µM
5. 29.6 µM
6. > 100 µM

Each compound below has a recorded value; state its TGI.
1. COP(=O)(OC)/C(=C\c1cn(C(c2ccccc2)(c2ccccc2)c2ccccc2)cn1)NC(C)=O
2. Cn1cnc([N+](=O)[O-])c1Sc1ncn[nH]1

OUT:
1: > 100 µM; 2: > 100 µM
